- System: HT29 colon
- protocol_summary: NCI tumour cell line growth inhibition, 48 h
property: TGI

Reported TGI ( COc1ccc(-n2cc(-c3cc(OC)c(OC)c(OC)c3)nc2SCc2ccccc2)cc1 ) = > 100 µM

Per the record, O=C1N(c2ccccc2)C2(c3ccccc3)CC3CCCC13S2 (centres undefined) has TGI of > 100 µM

Recorded result, CN(C)c1nc(N(C)C)nc(N(C)CN(C)c2ccc(Cl)cc2)n1 , TGI: > 100 µM

GET /value?item= COc1cc(-c2nc3sccn3c2-c2ccnc(NCCNS(=O)(=O)c3ccc(Cl)cc3)n2)ccc1F &field=TGI returns > 100 µM
